System: U2OS
procedureDetails: Multiplex assay against U2OS
Format: toxicity, cell-based
experimentalConditions: human, 24 h, 10 µM, compound concentration 10 uM, replicate 2
I'd be grateful if you could share measured Population Hoechst High Intensity Objects (%) for these entries.
Mention the unit after the number when you answer.

[in] # assay system U2OS: give Population Hoechst High Intensity Objects (%) of CC(C)COc1ccc(CNC(=O)N(Cc2ccc(F)cc2)C2CCN(C)CC2)cc1
[out] 3%

[in] # assay system U2OS: give Population Hoechst High Intensity Objects (%) of Cc1noc(-c2ccc(-c3ccc(CC(=O)O)cc3)cc2)c1NC(=O)O[C@H](C)c1ccccc1Cl
[out] 2%

[in] # assay system U2OS: give Population Hoechst High Intensity Objects (%) of N#Cc1cc(F)cc(-c2nc(-c3ccc(F)cn3)no2)c1
[out] 0%

[in] # assay system U2OS: give Population Hoechst High Intensity Objects (%) of CCCCC(=O)N(Cc1ccc(-c2ccccc2-c2nnn[nH]2)cc1)[C@H](C(=O)O)C(C)C
[out] 0%

[in] # assay system U2OS: give Population Hoechst High Intensity Objects (%) of CCCCCC(O)/C=C/[C@H]1C(=O)CC(O)C1C/C=C\CCCC(=O)O (some centres not stated)
[out] 2%

[in] # assay system U2OS: give Population Hoechst High Intensity Objects (%) of Cc1sc2c(c1C)C(c1ccc(Cl)cc1)=N[C@@H](CC(=O)NCCCCCCCCNC(=O)COc1cccc3c1C(=O)N(C1CCC(=O)NC1=O)C3=O)c1nnc(C)n1-2 (some centres not stated)
[out] 0%

[in] # assay system U2OS: give Population Hoechst High Intensity Objects (%) of CN[C@@H](C)C(=O)N[C@H](C(=O)N1CCC[C@H]1C(=O)Nc1snnc1-c1ccccc1)C1CCCCC1
[out] 10%

[in] # assay system U2OS: give Population Hoechst High Intensity Objects (%) of NCCc1cn(S(=O)(=O)c2c(Cl)nc3sccn23)c2ccccc12.O=C(O)C(=O)O
[out] 3%

[in] # assay system U2OS: give Population Hoechst High Intensity Objects (%) of CC(/C=C1\SC(=S)N(CCCC(=O)Nc2ccc(C(=O)O)c(O)c2)C1=O)=C\c1ccccc1
[out] 0%

[in] # assay system U2OS: give Population Hoechst High Intensity Objects (%) of CCCCC1=NC2(CCCC2)C(=O)N1Cc1ccc(-c2ccccc2-c2nnn[nH]2)cc1
[out] 0%

[in] # assay system U2OS: give Population Hoechst High Intensity Objects (%) of O=C1[C@H](Cc2ccc(O)cc2)N2C(=O)CCN(C(=O)NCc3ccccc3)[C@H]2CN1Cc1cccc2ccccc12
[out] 5%

[in] # assay system U2OS: give Population Hoechst High Intensity Objects (%) of CN1CCN(c2cc(-c3ccccc3)nc(N)n2)CC1
[out] 2%

[in] # assay system U2OS: give Population Hoechst High Intensity Objects (%) of CC[C@@H](C)Nc1nc(C)nc2c(-c3ccc(OC)nc3C)c(C)nn12
[out] 0%

[in] # assay system U2OS: give Population Hoechst High Intensity Objects (%) of CC(C)(C)c1cc(NC(=O)Nc2ccc(-c3cn4c(n3)sc3cc(OCCN5CCOCC5)ccc34)cc2)no1
[out] 2%

[in] # assay system U2OS: give Population Hoechst High Intensity Objects (%) of COc1cccc2c1c(NS(=O)(=O)c1ccc(Cl)s1)nn2Cc1cccc(CNC(=O)C(C)(C)O)c1
[out] 5%

[in] # assay system U2OS: give Population Hoechst High Intensity Objects (%) of Cc1cccc(NC(=O)CN2CCC(c3ccccn3)CC2)c1.Cl.Cl
[out] 2%

[in] # assay system U2OS: give Population Hoechst High Intensity Objects (%) of N#Cc1c(Oc2cccc(OS(=O)(=O)CCCC(F)(F)F)c2)cccc1C(F)(F)F
[out] 3%

* * *

Test system: U2OS
procedureDetails: Multiplex assay against U2OS
Format: toxicity, cell-based
experimentalConditions: human, 12 h, 10 µM, compound concentration 10 uM, replicate 2
I'd be grateful if you could share measured Population Apoptotic (%) for these entries.
Write it as a number; the unit % goes unstated.

[in] # return recorded Population Apoptotic (%) for input Cl.N=C(N)NC(=O)Cc1c(Cl)cccc1Cl [GUANFACINE HYDROCHLORIDE]
[out] 77

[in] # return recorded Population Apoptotic (%) for input CC(C)(C)c1cc(NC(=O)Nc2ccc(-c3cn4c(n3)sc3cc(OCCN5CCOCC5)ccc34)cc2)no1 [QUIZARTINIB]
[out] 23

[in] # return recorded Population Apoptotic (%) for input Br.CS(=O)(=O)Nc1c(O)ccc2c1CCCC2C1=NCCN1 (centres undefined)
[out] 100

[in] # return recorded Population Apoptotic (%) for input C[C@H](N)COC(=O)[C@@H](CCCCN)NC(=O)Cc1c(-c2ccc3ccccc3c2)[nH]c2c1ccc1ccccc12
[out] 50

* * *

Test system: Fibroblast
procedureDetails: Multiplex assay against human fibroblast
Assay type: toxicity, cell-based
experimentalConditions: 24 h, 1 µM, compound concentration 1 uM, replicate 1
Each record is given Criterion met if its reported Population Fragmented Nuclei (%) is strictly below 20%. Records at or above 20% are given Criterion not met.

[in] Would you kindly verify if Population Fragmented Nuclei (%) of CCCCC1=NC2(CCCC2)C(=O)N1Cc1ccc(-c2ccccc2-c2nnn[nH]2)cc1 [IRBESARTAN] is strictly less than 20%?
[out] Criterion met

[in] Would you kindly verify if Population Fragmented Nuclei (%) of N#Cc1cc(F)cc(-c2nc(-c3ccc(F)cn3)no2)c1 is strictly less than 20%?
[out] Criterion met

[in] Would you kindly verify if Population Fragmented Nuclei (%) of CCCOc1ccc2[nH]cc(C3=CCNCC3)c2n1.Cl is strictly less than 20%?
[out] Criterion met

[in] Would you kindly verify if Population Fragmented Nuclei (%) of Cl.NCCc1ccc(O)c(O)c1 [DOPAMINE HYDROCHLORIDE] is strictly less than 20%?
[out] Criterion met

[in] Would you kindly verify if Population Fragmented Nuclei (%) of Br.CS(=O)(=O)Nc1c(O)ccc2c1CCCC2C1=NCCN1 (configuration not stated) is strictly less than 20%?
[out] Criterion met

[in] Would you kindly verify if Population Fragmented Nuclei (%) of NCCc1cn(S(=O)(=O)c2c(Cl)nc3sccn23)c2ccccc12.O=C(O)C(=O)O is strictly less than 20%?
[out] Criterion not met

* * *

System: Fibroblast
procedureDetails: Multiplex assay against human fibroblast
Assay type: toxicity, cell-based
experimentalConditions: 12 h, 1 µM, compound concentration 1 uM, replicate 2
parameterMeasured: Population Healthy Nuclei (%)
Write it as a number; the unit % goes unstated.

[in] # return recorded Population Healthy Nuclei (%) for input N#Cc1cc(F)cc(-c2nc(-c3ccc(F)cn3)no2)c1
[out] 37

[in] # return recorded Population Healthy Nuclei (%) for input O=C(NCCN1CCC(n2c(=O)[nH]c3cc(Cl)ccc32)CC1)c1ccc(F)cc1 [HALOPEMIDE]
[out] 43

[in] # return recorded Population Healthy Nuclei (%) for input Cl.N=C(N)NC(=O)Cc1c(Cl)cccc1Cl [GUANFACINE HYDROCHLORIDE]
[out] 45

[in] # return recorded Population Healthy Nuclei (%) for input CC(C)(C)c1cc(NC(=O)Nc2ccc(-c3cn4c(n3)sc3cc(OCCN5CCOCC5)ccc34)cc2)no1
[out] 52

[in] # return recorded Population Healthy Nuclei (%) for input O=C1[C@H](Cc2ccc(O)cc2)N2C(=O)CCN(C(=O)NCc3ccccc3)[C@H]2CN1Cc1cccc2ccccc12
[out] 45

[in] # return recorded Population Healthy Nuclei (%) for input CN[C@@H](C)C(=O)N[C@H](C(=O)N1CCC[C@H]1C(=O)Nc1snnc1-c1ccccc1)C1CCCCC1
[out] 56

[in] # return recorded Population Healthy Nuclei (%) for input Cl.NCCc1ccc(O)c(O)c1 [DOPAMINE HYDROCHLORIDE]
[out] 40

[in] # return recorded Population Healthy Nuclei (%) for input COc1cccc2c1c(NS(=O)(=O)c1ccc(Cl)s1)nn2Cc1cccc(CNC(=O)C(C)(C)O)c1
[out] 54

[in] # return recorded Population Healthy Nuclei (%) for input CC[C@@H](C)Nc1nc(C)nc2c(-c3ccc(OC)nc3C)c(C)nn12
[out] 44

[in] # return recorded Population Healthy Nuclei (%) for input Cc1cccc(NC(=O)CN2CCC(c3ccccn3)CC2)c1.Cl.Cl
[out] 55

[in] # return recorded Population Healthy Nuclei (%) for input Cc1sc2c(c1C)C(c1ccc(Cl)cc1)=N[C@@H](CC(=O)NCCCCCCCCNC(=O)COc1cccc3c1C(=O)N(C1CCC(=O)NC1=O)C3=O)c1nnc(C)n1-2 (stereo not given in full)
[out] 34

[in] # return recorded Population Healthy Nuclei (%) for input N#Cc1c(Oc2cccc(OS(=O)(=O)CCCC(F)(F)F)c2)cccc1C(F)(F)F
[out] 48

[in] # return recorded Population Healthy Nuclei (%) for input CCCOc1ccc2[nH]cc(C3=CCNCC3)c2n1.Cl
[out] 52

[in] # return recorded Population Healthy Nuclei (%) for input Br.CS(=O)(=O)Nc1c(O)ccc2c1CCCC2C1=NCCN1 (stereo not given)
[out] 47

[in] # return recorded Population Healthy Nuclei (%) for input CC(=O)Nc1cccc2c1c(Sc1ccc(Cl)cc1)c(C)n2CC(=O)O
[out] 47
